# experiment-notes: FIGHT-101 clinical pharmacokinetics
# condition-set: human, in vivo, Steady-state geometric mean terminal-phase disposition half-life, doses ≥6 mg QD

{"columns": ["smiles-notation", "half-life"],
 "data": [
  ["CCN1C(=O)N(c2c(F)c(OC)cc(OC)c2F)Cc2cnc3[nH]c(CN4CCOCC4)cc3c21", "12.1 to 15.4 h"]
]}
